This collection of values is drawn from paper PMC9099256.

Some molecules, each annotated with its measured pKi.
# target.of.assay: Aβ1–42 fibrils (Homo sapiens, UniProt P05067)
# Construct: 1 mg of β-amyloid1−42 peptide was dissolved in 50 μL DMSO
# Sequence (P05067 672-713): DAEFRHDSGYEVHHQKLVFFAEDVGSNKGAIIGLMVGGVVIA
# measurement.description: Competition binding assay against [3H]DCVJ, Aβ1–42 fibrils
# study.conditions: vs [3H]DCVJ 10 nM, fibrils 125 nM
// field semantics: pKi = negative decimal log of concentration (mol/L)

molecule	pKi
COc1ccc(-c2csc(-c3nc(-c4ccc5c(c4)OCO5)cs3)n2)cc1F [d2]	6.62
COc1ccc(-c2csc(-c3nc(-c4cnc5c(c4)OCO5)cs3)n2)cc1F [d4]	6.56
Fc1ccc(-c2csc(-c3nc(-c4ccc5c(c4)OCO5)cs3)n2)cn1 [d6]	6.62

Input Fc1ccc(-c2csc(-c3nc(-c4cnc5c(c4)OCO5)cs3)n2)cn1 [d8] . Output pKi: 6.41
